Known Mean Florescence Intensity (MFI) of a selection of binders
# measurement-target: T1, human beta klotho expressed on cells (human, UniProt Q86Z14 1-1044)
# T1 construct: also called HuKLB overexpressing cells; Human KLB
# T1 sequence: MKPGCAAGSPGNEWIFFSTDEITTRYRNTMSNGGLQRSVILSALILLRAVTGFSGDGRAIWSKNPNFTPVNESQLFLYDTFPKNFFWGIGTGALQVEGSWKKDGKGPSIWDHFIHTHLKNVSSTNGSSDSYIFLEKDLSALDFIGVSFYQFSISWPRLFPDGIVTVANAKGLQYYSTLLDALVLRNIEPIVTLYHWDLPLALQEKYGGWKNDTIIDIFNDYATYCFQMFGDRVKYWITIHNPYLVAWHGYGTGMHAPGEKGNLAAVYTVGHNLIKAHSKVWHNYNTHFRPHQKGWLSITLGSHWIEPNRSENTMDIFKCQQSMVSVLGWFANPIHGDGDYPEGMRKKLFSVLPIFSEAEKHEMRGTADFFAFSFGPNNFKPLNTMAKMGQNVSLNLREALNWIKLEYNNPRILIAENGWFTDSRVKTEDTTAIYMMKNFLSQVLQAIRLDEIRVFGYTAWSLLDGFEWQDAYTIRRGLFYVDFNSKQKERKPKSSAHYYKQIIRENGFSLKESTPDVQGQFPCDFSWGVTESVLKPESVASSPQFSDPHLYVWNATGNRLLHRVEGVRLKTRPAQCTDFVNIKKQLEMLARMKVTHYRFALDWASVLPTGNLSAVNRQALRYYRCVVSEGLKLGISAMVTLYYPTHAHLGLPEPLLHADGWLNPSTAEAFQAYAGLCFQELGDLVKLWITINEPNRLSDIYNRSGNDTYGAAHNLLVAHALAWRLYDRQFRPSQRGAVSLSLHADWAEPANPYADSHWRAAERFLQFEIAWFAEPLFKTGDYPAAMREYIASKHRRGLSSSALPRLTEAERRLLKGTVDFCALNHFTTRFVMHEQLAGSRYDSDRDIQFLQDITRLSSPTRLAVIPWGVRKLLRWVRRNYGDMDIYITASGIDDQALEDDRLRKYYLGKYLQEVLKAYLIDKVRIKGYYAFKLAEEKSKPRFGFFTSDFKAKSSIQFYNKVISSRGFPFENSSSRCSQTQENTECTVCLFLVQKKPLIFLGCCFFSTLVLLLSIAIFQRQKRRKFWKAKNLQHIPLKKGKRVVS
# assay-text: FACS competition on HuKLB-overexpressing cells; row antibody unlabelled; competitor 3I13-Alexa488 (labelled, EC10); MFI of the label
quantity-name: Mean Florescence Intensity (MFI)

binder: antibody 5H23 (antibody, V domains shown, Murine monoclonal antibody from hybridoma; also called 5H23-Alexa647 (labelled form)) VH: QVQLQQSGPELVKPGALVKISCKASGYTFTSYDINWVKQRPGQGLEWIGWIYPGDGSTKYNEKFKGKATLTADKSSRTAYMQLSSLTSENSAVYFCARSDYYGSRSFAYWGQGTLVTVSA VL: DIVLTQSPASLAVSLGQRATISCRASKSVSTSGYVYMHWNQQKPGQPPKLLIYLASYLESGVPARFSGSGSGTDFTLNIHPVEEEDAAIYYCQHSRDLTFPFGGGTKLEIK
quantity-name: Mean Florescence Intensity (MFI)
unit-descriptor: MFI
value: 29.8
--
binder: antibody 5C23 (antibody, V domains shown, Murine monoclonal antibody) VH: QVQPQESGPELVKPGALVKISCKASGYTFTRYDINWVKKRPGQGLEWIGWIYPGDGSTKYNEKFEGKATLTADKSSSTAYMQLSSLTSENSAVYFCARSDYYGSRSFVYWGQGTLVTVSA VL: DIVLTQSPDSLTVSLGQRATISCRASKSVSTSGYSYMHWYQQKPGQPPKLLIYLASNLESGVPARFSGSGSGTDFTLNIHPVEEEDAATYYCQHSRELPYTFGGGTKLEIK
quantity-name: Mean Florescence Intensity (MFI)
unit-descriptor: MFI
value: 29.3
--
binder: antibody 4P5 (antibody, V domains shown, Murine monoclonal antibody) VH: QVQLQQSGPELVKPGALVKISCKASGYTFTRYDINWVKKRPGQGLEWIGWIYPGDDSTKYNEKFKGKATLTADKSSSTAYMQLSSLTSENSAVYFCARSDYYGSRSFVYWGQGTLVTVSA VL: DILLTQSPASLAVSLGQRATISCRASKSVSTSGYSYMHWYQQKPGQPPKLLIYLASNLESGVPARFSGRGSGTDFTLNIHPVEEEDAATYYCHHSGELPYTFGGGTKLEIK
quantity-name: Mean Florescence Intensity (MFI)
unit-descriptor: MFI
value: 30.1
--
binder: antibody 2L12 (antibody, V domains shown, Murine monoclonal antibody) VH: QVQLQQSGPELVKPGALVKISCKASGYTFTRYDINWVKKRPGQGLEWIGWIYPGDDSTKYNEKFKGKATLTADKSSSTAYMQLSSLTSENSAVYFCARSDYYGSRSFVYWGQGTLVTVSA VL: DIVLTQSPASLPVSLGQRATISCRASKSVSTSGYSYLHWYQQKPGQPPKLLIYLASNLESGVPARFSGSGSGTDFTLNIHPVEEEDAATYYCQHSGELPYTFGGGTKLEIK
quantity-name: Mean Florescence Intensity (MFI)
unit-descriptor: MFI
value: 30.9
--
binder: antibody 1D19 (antibody, V domains shown, Murine monoclonal antibody) VH: QVQPQESGPELVKPGALVKISCKASGYTFTRYDINWMKQRPGQGLEWIGWIYPGDSSTKFNENFKDKATLTADKSSSTAYMQLSSLTSENSTVYFCARSDYYGSRSFTYWGQGTLVTVSA VL: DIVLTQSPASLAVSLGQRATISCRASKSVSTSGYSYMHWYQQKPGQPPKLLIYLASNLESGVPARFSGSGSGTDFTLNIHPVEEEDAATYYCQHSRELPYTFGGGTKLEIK
quantity-name: Mean Florescence Intensity (MFI)
unit-descriptor: MFI
value: 30.6
--
binder: antibody 1G19 (antibody, V domains shown, Murine monoclonal antibody) VH: QVQLQESGPGLVKPSQSLSLTCSVTGYSITSGYYWNWIRQFPGNKLEWMGYINYGGSNNYNPSLKNRISITRDTSKNQFFLKLTSVTTEDTATYYCARRGAYYSNYDSFDVWGTGTTVTVSS VL: DIKMTQSPSSMYASLGERVTITCKASQDINSYLSWFQQKPGKSPKTLIYRANRLVDGVPSRFSGSGSGQDYSLTISSLEYEEMGIYYCLQYDEFPYTFGGGTKLEIK
quantity-name: Mean Florescence Intensity (MFI)
unit-descriptor: MFI
value: 29
--
binder: antibody 3L3 (antibody, V domains shown, Murine monoclonal antibody) VH: QVQPQESGPELVKPGTLVKISCKASGYTFTSYDINWVKQRPGQGLEWIGWIYPGDGSPKYDEKFKGKATLTADKSSSTAYMQLSSLTSENSAVYFCARSDYYGSRSFVYWGQGTLVTVSA VL: DIVLTQSPASLAVSLGQRATISCRASKSVSTSGYSYVHWYQQKPGQPPKLLIYLASNLESGVPARFSGRGSGTDFTLNIHPVEEEDAATYYCQHSGELPYTFGGGTKLEIK
quantity-name: Mean Florescence Intensity (MFI)
unit-descriptor: MFI
value: 28.7
--
binder: antibody 3N20 (antibody, V domains shown, Murine monoclonal antibody) VH: QVQLQESGAELARPGASVKLSCKVSGYIFTNYGISWVKQRTGQGLEWIGEIYPRSGNTYYNEKFKGKATLTADMSSSTAYMDLRSLTSEDSAVYFCARHWDGVLDYFDYWGQGTSLTVSS VL: DIVMTQSPSSLSVSAGEKVTMSCKSSQSLLNSGNQKNYLAWYQQKPGQPPKLLIYGASTRESGVPDRFTGSGSGTDFTLTISSVQAEDLAVYYCLNDHSYPFTFGAGTKLELK
quantity-name: Mean Florescence Intensity (MFI)
unit-descriptor: MFI
value: 30.5
--
binder: antibody 1C17 (antibody, V domains shown, Murine monoclonal antibody) VH: QVQLQESGPGLVKPSQSLSLTCSVTGYSITSGYYWNWIRQFPGNKLEWMGYINYDGNSNYTPSLKNRISITRDTSKNQFFLKLNSVTPEDTATYYCARKGAYYSNYDSFDVWGTGTTVTVSS VL: DIKMTQSPSSMYASLGERVTITCKASQDINSYLSWVQQKPGKSPKTLIYRANRLVDGVPSRFSGSGSGQDYSLTISSLEYEDMGIYYCLQYDEFPFTFGSGTKLEIK
quantity-name: Mean Florescence Intensity (MFI)
unit-descriptor: MFI
value: 26.7
--
binder: antibody 5F7 (antibody, V domains shown, Murine monoclonal antibody) VH: QVQPQESGPELVKPGALVKISCKASGYTFTRYDINWVKQRPGQGLEWIGWIYPGDISTKYNEKFKGKATLTADKSSSTAYMQLNSLTSENSAVYFCARSDYYGSRSFVYWGQGTLVTVSA VL: DIVLTQSPASLAVSLGQRATISCRASKSVSTSGYSYMHWYQQKPGQPPKLLIYLASNLESGVPARFSGSGSGTDFTLNIHPVEEEDAATYYCQHSRELPYTFGGGTKVEIK
quantity-name: Mean Florescence Intensity (MFI)
unit-descriptor: MFI
value: 28.5
